The reported numbers originate from patent US5861393A.

Biological target: bovine plasma plasmin (Bos taurus, UniProt P06868)
Construct: from tissue; host or cells: bovine plasma
Sequence (P06868 584-812 limits assumed): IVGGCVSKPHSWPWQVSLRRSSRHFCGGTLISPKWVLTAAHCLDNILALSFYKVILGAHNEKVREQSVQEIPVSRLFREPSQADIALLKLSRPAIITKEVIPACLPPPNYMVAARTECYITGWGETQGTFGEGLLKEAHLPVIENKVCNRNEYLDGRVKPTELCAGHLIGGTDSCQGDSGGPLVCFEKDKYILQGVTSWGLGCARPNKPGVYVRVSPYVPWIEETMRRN
Sequence (P06868 105-583 partner limits assumed): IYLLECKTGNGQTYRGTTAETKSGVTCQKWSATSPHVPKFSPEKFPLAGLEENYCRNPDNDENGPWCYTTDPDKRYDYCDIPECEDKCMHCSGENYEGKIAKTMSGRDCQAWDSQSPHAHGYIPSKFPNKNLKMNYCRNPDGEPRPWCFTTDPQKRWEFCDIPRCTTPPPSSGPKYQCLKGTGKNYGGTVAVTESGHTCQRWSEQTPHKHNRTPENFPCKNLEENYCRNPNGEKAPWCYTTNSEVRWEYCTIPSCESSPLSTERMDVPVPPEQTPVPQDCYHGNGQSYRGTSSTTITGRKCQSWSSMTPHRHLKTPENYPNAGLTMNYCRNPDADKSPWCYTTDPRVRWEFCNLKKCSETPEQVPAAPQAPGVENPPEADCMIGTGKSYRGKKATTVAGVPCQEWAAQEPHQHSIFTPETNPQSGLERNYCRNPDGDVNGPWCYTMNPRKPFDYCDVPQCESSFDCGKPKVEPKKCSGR
Test: Chromogenic assay, inhibition of plasmin
Type: biochemical
Settings: in vitro; substrate Chromozym PL; pH 8.0; 30 minutes at 30° C.
Structures can show the parent of a compound that is named as a salt.
Each item that follows carries a reported Ki.
Give your result in µM as a bare value.

Previously resolved entries follow.
[[record]]
compound = "CC1=CCN(C(=O)[C@H](Cc2cccc(C(=N)N)c2)NS(=O)(=O)c2ccc3c(c2)CCN(C(C)C)CC3)[C@@H](C(=O)O)C1 [Example 8, dihydrochloride]"
endpoint_value = 1.8

[[record]]
compound = "CC1=CCN(C(=O)[C@H](Cc2cccc(C(=N)N)c2)NS(=O)(=O)c2ccc3c(c2)C(CC(=O)N(C)C)N(C)CC3)[C@@H](C(=O)O)C1 (stereo partly drawn) [Example 5, dihydrochloride]"
endpoint_value = 6


Using the record for CC1=CCN(C(=O)[C@H](Cc2cccc(C(=N)N)c2)NS(=O)(=O)c2ccc3c(c2)CCN(C)C3)[C@@H](C(=O)O)C1 [Example 2, dihydrochloride] , report its Ki.
6.1

###

Target: bovine pancreatic trypsin (Bos taurus, UniProt P00760)
Construct: from tissue; host or cells: bovine pancreas
Sequence (P00760 24-246): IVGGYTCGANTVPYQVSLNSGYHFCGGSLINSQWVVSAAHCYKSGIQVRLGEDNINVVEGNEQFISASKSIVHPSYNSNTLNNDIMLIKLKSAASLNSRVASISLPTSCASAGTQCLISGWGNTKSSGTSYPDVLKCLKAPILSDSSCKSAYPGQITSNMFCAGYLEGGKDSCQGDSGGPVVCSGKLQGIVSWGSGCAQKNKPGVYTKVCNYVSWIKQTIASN
Test: Chromogenic assay, inhibition of trypsin
Assay type: biochemical
Details: in vitro; substrate S2222; pH 8.0; 30 minutes at 30° C.
Counter-ions that a name gives are not always drawn.
Define the label as YES when Ki is strictly less than 0.05 µM and as NO in all remaining cases.

[[record]]
molecule = "CC1=CCN(C(=O)[C@H](Cc2cccc(C(=N)N)c2)NS(=O)(=O)c2ccc3c(c2)CN(Cc2ccccc2)CC3)[C@@H](C(=O)O)C1 [Example 10, dihydrochloride]"
qualitative_label = "YES"


I'd appreciate it if you could check whether CC1=CCN(C(=O)[C@H](Cc2cccc(C(=N)N)c2)NS(=O)(=O)c2ccc3c(c2)CNCC3)C(C(=O)O)C1 (stereo partly drawn) [Example 15, dihydrochloride] has Ki smaller than 0.05 µM.
NO

Consider CC1=CCN(C(=O)[C@H](Cc2cccc(C(=N)N)c2)NS(=O)(=O)c2ccc3c(c2)CCN(C)C3)[C@@H](C(=O)O)C1 [Example 2, dihydrochloride] . Does its Ki lie strictly below 0.05 µM?
NO

Problem: For the molecule CC1=CCN(C(=O)[C@H](Cc2cccc(C(=N)N)c2)NS(=O)(=O)c2ccc3c(c2)C(CC(=O)N(C)C)N(C)CC3)[C@@H](C(=O)O)C1 (stereo partly drawn) [Example 5, dihydrochloride] , is Ki under 0.05 µM?
NO

Does the reported Ki of CC1=CCN(C(=O)[C@H](Cc2cccc(C(=N)N)c2)NS(=O)(=O)c2ccc3c(c2)CCN(C(C)C)CC3)[C@@H](C(=O)O)C1 [Example 8, dihydrochloride] stay below 0.05 µM?
YES

###

Each entry below lists one item and its recorded Ki value.
Target: bovine thrombin (Bos taurus, UniProt P00735)
Test: Chromogenic assay, inhibition of thrombin
Format: biochemical
Details: in vitro; substrate S2238; pH 8.0; 30 minutes at 30° C.
Counter-ions that a name gives are not always drawn.
Answer with a number only, understood to be in nM.

[[record]]
compound = "CC1=CCN(C(=O)[C@H](Cc2cccc(C(=N)N)c2)NS(=O)(=O)c2ccc3c(c2)CNCC3)C(C(=O)O)C1 (stereo partly drawn) [Example 15, dihydrochloride]"
target_entity = "bovine thrombin (Bos taurus, UniProt P00735)"
unit_info = "nM"
endpoint_value = 78

[[record]]
compound = "CC1=CCN(C(=O)[C@H](Cc2cccc(C(=N)N)c2)NS(=O)(=O)c2ccc3c(c2)CCN(C(C)C)CC3)[C@@H](C(=O)O)C1 [Example 8, dihydrochloride]"
target_entity = "bovine thrombin (Bos taurus, UniProt P00735)"
unit_info = "nM"
endpoint_value = 6.4


I would be grateful if you could share the reported Ki for CC1=CCN(C(=O)[C@H](Cc2cccc(C(=N)N)c2)NS(=O)(=O)c2ccc3c(c2)C(CC(=O)N(C)C)N(C)CC3)[C@@H](C(=O)O)C1 (stereo partly drawn) [Example 5, dihydrochloride] .
2.2
